- protocol-description: in vitro
- condition-label: mouse, microsomes, pH 7.4, Microsome Clint Mouse, intrinsic in vitro clearance, liver microsomes
property: microsomal CLint at 0.5 h, 0.5 µM (µL/min/mg)
Unit µL/min/mg implied. Number only.

COc1ncccc1S(=O)(=O)N(Cc1ccccc1)Cc1ccccc1 [Compound 30] | 2570
COCCOCN1CNc2cc(OC)c(S(=O)(=O)N(Cc3ccccc3)Cc3ccccc3)cc2S1(=O)=O [Compound 29] | 1370
COc1ccc(C(=O)O)cc1S(=O)(=O)N(Cc1ccccc1)Cc1ccccc1 [Compound 20] | 94
N#Cc1ccc(O)c(S(=O)(=O)N(Cc2ccc(F)cc2)Cc2ccc(F)cc2)c1 [Compound 16] | 1100

Lab note: COc1ccc([S+](C)[O-])cc1S(=O)(=O)N(Cc1ccccc1)Cc1ccccc1 (centres unmarked) [Compound 28] gave microsomal CLint at 0.5 h, 0.5 µM of 929

* * *

Reported values of Papp for individual entries
- protocol-description: in vitro
- condition-label: PAMPA
Form entry: value (nm/s) — number only.

Solved entries:
N#Cc1ccccc1S(=O)(=O)N(Cc1ccccc1)Cc1ccccc1 | 16.6
O=C(c1ccc(OCC2CCCO2)c(S(=O)(=O)NCc2ccccc2)c1)N1CCOCC1 (centres unmarked) | 147
COc1ccc(C(=O)N2CCOCC2)cc1S(=O)(=O)N(Cc1ccccc1)CC(C)(C)C | 217

# molecule NS(=O)(=O)c1cc2c(cc1Cl)NCN(Cc1ccccc1)S2(=O)=O ; its Papp = 28.3

Form field Papp, entry COc1ccc(S(C)(=O)=O)cc1S(=O)(=O)N(Cc1ccccc1)CC(C)(C)C : 141

* * *

- protocol-description: physchem
- condition-label: HPLC, Ascentis Express RP Amide column, pH 7.4, eLogD, experimental
property: chromatographic logD
Answer with a number only.

Below, 2 compounds whose answers are already recorded.
COc1ccc(C#N)cc1S(=O)(=O)N(Cc1ccc(C(F)(F)F)nc1)Cc1ccc(C(F)(F)F)nc1 | 3.9
COc1ccccc1S(=O)(=O)N(Cc1ccccc1)CC(O)c1ccc(F)cc1 (stereo not drawn) | 4.1

Next, consider the following compound.
For this compound ( COCCNC(=O)c1ccc(OC)c(S(=O)(=O)N(Cc2ccc(F)cc2)Cc2ccc(F)cc2)c1 ), measured chromatographic logD is 4.1

* * *

- protocol-description: in vitro
- condition-label: mouse, microsomes, pH 7.4, MLM CLint, mouse liver microsomes
Would you mind classing the entries by microsomal CLint at 0.5 μM? Ranges: bottom bin (below 400 µL/min/mg), middle bin (400 µL/min/mg to below 1000 µL/min/mg), top bin (1000 µL/min/mg or more)

Consider the following illustrative entries.
CCC(Cc1ccccc1)Sc1nc(C)cc(C)c1C#N (centres unmarked) | top bin
CCN(Cc1ccccc1)S(=O)(=O)c1ccc(OC)cc1 | top bin

Query: Categorize the following entry: COc1ccc(OC)c(S(=O)(=O)N(Cc2ccccc2)C2CCNCC2)c1
Reply: bottom bin

Query: Looking at COc1ccc(OC)c(S(=O)(=O)N(Cc2ccccc2)Cc2ccccc2)c1 , which class would you pick?
Reply: top bin

* * *

- protocol-description: in vitro
- condition-label: human, THP-1 cells differentiated with PMA
CC50 at 120 h reference

Record excerpt, results attached:
CCN(Cc1ccc(F)cc1)S(=O)(=O)c1cc(C(=O)N2CCOCC2)ccc1OC [DNDI0003392124] | > 64 µM
NS(=O)(=O)c1cc2c(cc1Cl)NCN(Cc1ccccc1)S2(=O)=O [DNDI0003392143] | > 64 µM
CCCCCOc1cc(C)c(C)cc1S(=O)(=O)NC1CCCC1 [DNDI0002550647] | > 50 µM

For reference, reported CC50 at 120 h for COc1ccc(C#N)cc1S(=O)(=O)N(Cc1ccccc1)Cc1cnc(C(F)(F)F)nc1 [DNDI0003425527] stands at > 64 µM
